- method summary: Therapeutic index, ratio of IC50 for human TZM-b1 cells to EC50 for HIV1 RTMDR1
- Type: cell-based
- condition set: read-out: TI
property: selectivity ratio
Answers are plain numbers.

[[record]]
smiles_code = "CCc1oc2c3c(ccc2c(=O)c1N)OC(C)(C)[C@H](OC(=O)[C@@]12CC[C@@](C)(C(=O)O1)C2(C)C)[C@@H]3OC(=O)[C@@]12CC[C@@](C)(C(=O)O1)C2(C)C"
property = "selectivity ratio"
numeric_readout = 74


The record that follows has no selectivity ratio shown yet.
Can you share its selectivity ratio? I mean this compound: `CC(Br)(Br)c1cc(=O)c2ccc3c(c2o1)[C@@H](OC(=O)[C@@]12CC[C@@](C)(C(=O)O1)C2(C)C)[C@@H](OC(=O)[C@@]12CC[C@@](C)(C(=O)O1)C2(C)C)C(C)(C)O3`
4

====

- method summary: Cytotoxicity against human TZM-b1 cells
- Assay type: cell-based
Label criterion met when IC50 is strictly below 10 µM; at or above that, label criterion not met.

Use the examples below as a reference point.
[[record]]
smiles_code = "Cc1oc2c3c(ccc2c(=O)c1Br)OC(C)(C)[C@H](OC(=O)[C@@]12CC[C@@](C)(C(=O)O1)C2(C)C)[C@@H]3OC(=O)[C@@]12CC[C@@](C)(C(=O)O1)C2(C)C"
label = "criterion met"

[[record]]
smiles_code = "CC1(C)Oc2ccc3c(=O)cc(CNCc4ccncc4)oc3c2[C@@H](OC(=O)[C@@]23CC[C@@](C)(C(=O)O2)C3(C)C)[C@H]1OC(=O)[C@@]12CC[C@@](C)(C(=O)O1)C2(C)C"
label = "criterion not met"

[[record]]
smiles_code = "CC1(C)Oc2ccc3c(=O)cc(CN4CCOCC4)oc3c2[C@@H](OC(=O)[C@@]23CC[C@@](C)(C(=O)O2)C3(C)C)[C@H]1OC(=O)[C@@]12CC[C@@](C)(C(=O)O1)C2(C)C"
label = "criterion not met"

[[record]]
smiles_code = "Cc1cc(=O)c2ccc3c(c2o1)[C@@H](OC(=O)[C@@]12CC[C@@](C)(C(=O)O1)C2(C)C)[C@@H](OC(=O)[C@@]12CC[C@@](C)(C(=O)O1)C2(C)C)C(C)(C)O3"
label = "criterion not met"


Would you kindly verify if IC50 of `Cc1oc2c3c(ccc2c(=O)c1N)OC(C)(C)[C@H](OC(=O)[C@@]12CC[C@@](C)(C(=O)O1)C2(C)C)[C@@H]3OC(=O)[C@@]12CC[C@@](C)(C(=O)O1)C2(C)C` is strictly less than 10 µM?
criterion not met

Would you kindly verify if IC50 of `Cc1oc2c3c(c(Br)c(C)c2c(=O)c1Br)OC(C)(C)[C@H](OC(=O)[C@@]12CC[C@@](C)(C(=O)O1)C2(C)C)[C@@H]3OC(=O)[C@@]12CC[C@@](C)(C(=O)O1)C2(C)C` is strictly less than 10 µM?
criterion not met

Would you kindly verify if IC50 of `Cc1c(C#N)oc2c3c(ccc2c1=O)OC(C)(C)[C@H](OC(=O)[C@@]12CC[C@@](C)(C(=O)O1)C2(C)C)[C@@H]3OC(=O)[C@@]12CC[C@@](C)(C(=O)O1)C2(C)C` is strictly less than 10 µM?
criterion not met

Would you kindly verify if IC50 of `CCc1cc(=O)c2c(C)cc3c(c2o1)[C@@H](OC(=O)[C@@]12CC[C@@](C)(C(=O)O1)C2(C)C)[C@@H](OC(=O)[C@@]12CC[C@@](C)(C(=O)O1)C2(C)C)C(C)(C)O3` is strictly less than 10 µM?
criterion not met

Would you kindly verify if IC50 of `CCc1cc(=O)c2c(CC)cc3c(c2o1)[C@@H](OC(=O)[C@@]12CC[C@@](C)(C(=O)O1)C2(C)C)[C@@H](OC(=O)[C@@]12CC[C@@](C)(C(=O)O1)C2(C)C)C(C)(C)O3` is strictly less than 10 µM?
criterion not met

Would you kindly verify if IC50 of `CCc1cc(=O)c2ccc3c(c2o1)[C@@H](OC(=O)[C@@]12CC[C@@](C)(C(=O)O1)C2(C)C)[C@@H](OC(=O)[C@@]12CC[C@@](C)(C(=O)O1)C2(C)C)C(C)(C)O3` is strictly less than 10 µM?
criterion met

====

- Tested on: Human immunodeficiency virus 1
- method summary: Antiviral activity against wild type HIV1 NL4-3 in human TZM-b1 cells after 48 hrs by luciferase reporter gene assay
- Type: functional, organism-based
- condition set: Human immunodeficiency virus 1, NL4-3, TZM-b1, 48 h
property: EC50 (nM)
One number for each entry, in nM.

Consider the worked cases shown below.
[[record]]
smiles_code = "Cc1oc2c3c(c(Br)c(C)c2c(=O)c1Br)OC(C)(C)[C@H](OC(=O)[C@@]12CC[C@@](C)(C(=O)O1)C2(C)C)[C@@H]3OC(=O)[C@@]12CC[C@@](C)(C(=O)O1)C2(C)C"
tested_system = "Human immunodeficiency virus 1"
numeric_readout = 10000

[[record]]
smiles_code = "Cc1cc(=O)c2c(C)cc3c(c2o1)[C@@H](OC(=O)[C@@]12CC[C@@](C)(C(=O)O1)C2(C)C)[C@@H](OC(=O)[C@@]12CC[C@@](C)(C(=O)O1)C2(C)C)C(C)(C)O3"
tested_system = "Human immunodeficiency virus 1"
numeric_readout = 36

[[record]]
smiles_code = "CC1(C)Oc2ccc3c(=O)cc(CNCc4ccncc4)oc3c2[C@@H](OC(=O)[C@@]23CC[C@@](C)(C(=O)O2)C3(C)C)[C@H]1OC(=O)[C@@]12CC[C@@](C)(C(=O)O1)C2(C)C"
tested_system = "Human immunodeficiency virus 1"
numeric_readout = 21000

[[record]]
smiles_code = "Cc1oc2c3c(ccc2c(=O)c1Br)OC(C)(C)[C@H](OC(=O)[C@@]12CC[C@@](C)(C(=O)O1)C2(C)C)[C@@H]3OC(=O)[C@@]12CC[C@@](C)(C(=O)O1)C2(C)C"
tested_system = "Human immunodeficiency virus 1"
numeric_readout = 550


The record that follows has no EC50 shown yet.
Can you share its EC50? I mean this compound: `CCc1oc2c3c(ccc2c(=O)c1N)OC(C)(C)[C@H](OC(=O)[C@@]12CC[C@@](C)(C(=O)O1)C2(C)C)[C@@H]3OC(=O)[C@@]12CC[C@@](C)(C(=O)O1)C2(C)C`
120

====

- method summary: Therapeutic index, ratio of IC50 for human TZM-b1 cells to EC50 for HIV1 NL4-3
- Assay type: cell-based
- condition set: read-out: TI
For each entry below, report its selectivity ratio value.
Give bare numbers.

[[record]]
smiles_code = "CCc1oc2c3c(ccc2c(=O)c1N)OC(C)(C)[C@H](OC(=O)[C@@]12CC[C@@](C)(C(=O)O1)C2(C)C)[C@@H]3OC(=O)[C@@]12CC[C@@](C)(C(=O)O1)C2(C)C"
numeric_readout = 190


The record that follows has no selectivity ratio shown yet.
Can you share its selectivity ratio? I mean this compound: `Cc1cc(=O)c2c(CBr)cc3c(c2o1)[C@@H](OC(=O)[C@@]12CC[C@@](C)(C(=O)O1)C2(C)C)[C@@H](OC(=O)[C@@]12CC[C@@](C)(C(=O)O1)C2(C)C)C(C)(C)O3`
11

====

- method summary: Cytotoxicity against human TZM-b1 cells
- Assay type: cell-based
property: IC50

[[record]]
smiles_code = "CCc1oc2c3c(ccc2c(=O)c1N)OC(C)(C)[C@H](OC(=O)[C@@]12CC[C@@](C)(C(=O)O1)C2(C)C)[C@@H]3OC(=O)[C@@]12CC[C@@](C)(C(=O)O1)C2(C)C"
result = "23 µM"


// batch mode: one IC50 value per listed entry
1. CNCc1cc(=O)c2ccc3c(c2o1)[C@@H](OC(=O)[C@@]12CC[C@@](C)(C(=O)O1)C2(C)C)[C@@H](OC(=O)[C@@]12CC[C@@](C)(C(=O)O1)C2(C)C)C(C)(C)O3
2. Cc1oc2c3c(cc(C)c2c(=O)c1Br)OC(C)(C)[C@H](OC(=O)[C@@]12CC[C@@](C)(C(=O)O1)C2(C)C)[C@@H]3OC(=O)[C@@]12CC[C@@](C)(C(=O)O1)C2(C)C

> 30 µM
> 14 µM

====

- method summary: Cytotoxicity against human TZM-b1 cells
- Type: cell-based
property: pIC50
One number for each entry, as −log10 of the molar value.

[[record]]
smiles_code = "Cc1cc(=O)c2c(C)cc3c(c2o1)[C@@H](OC(=O)[C@@]12CC[C@@](C)(C(=O)O1)C2(C)C)[C@@H](OC(=O)[C@@]12CC[C@@](C)(C(=O)O1)C2(C)C)C(C)(C)O3"
numeric_readout = 4.82

[[record]]
smiles_code = "CC1(C)Oc2ccc3c(=O)cc(CC#N)oc3c2[C@@H](OC(=O)[C@@]23CC[C@@](C)(C(=O)O2)C3(C)C)[C@H]1OC(=O)[C@@]12CC[C@@](C)(C(=O)O1)C2(C)C"
numeric_readout = 4.77

[[record]]
smiles_code = "Cc1oc2c3c(ccc2c(=O)c1I)OC(C)(C)[C@H](OC(=O)[C@@]12CC[C@@](C)(C(=O)O1)C2(C)C)[C@@H]3OC(=O)[C@@]12CC[C@@](C)(C(=O)O1)C2(C)C"
numeric_readout = 4.89

[[record]]
smiles_code = "CCc1oc2c3c(ccc2c(=O)c1NC)OC(C)(C)[C@H](OC(=O)[C@@]12CC[C@@](C)(C(=O)O1)C2(C)C)[C@@H]3OC(=O)[C@@]12CC[C@@](C)(C(=O)O1)C2(C)C"
numeric_readout = 4.49

[[record]]
smiles_code = "CN(C)CCCN1CCN(Cc2cc(=O)c3ccc4c(c3o2)[C@@H](OC(=O)[C@@]23CC[C@@](C)(C(=O)O2)C3(C)C)[C@@H](OC(=O)[C@@]23CC[C@@](C)(C(=O)O2)C3(C)C)C(C)(C)O4)CC1"
numeric_readout = 4.77


The record that follows has no pIC50 shown yet.
Can you share its pIC50? I mean this molecule: `Cc1cc(=O)c2c(CBr)cc3c(c2o1)[C@@H](OC(=O)[C@@]12CC[C@@](C)(C(=O)O1)C2(C)C)[C@@H](OC(=O)[C@@]12CC[C@@](C)(C(=O)O1)C2(C)C)C(C)(C)O3`
5.05

Source: ChEMBL document CHEMBL1221394
